System: UO-31
Test: NCI tumour cell line growth inhibition, 48 h
Active and inactive are the calls of the source. Rule as the data show it: active = GI50 up to about 1.1 µM and inactive = higher.

[
  {
    "MOLECULE": "CCOP(=S)(OCC)Oc1ccc2c(c1)OC(=O)C1(Cl)C2(C)C2(Cl)C(=O)Oc3cc(OP(=S)(OCC)OCC)ccc3C12C (stereo unspecified)",
    "GI50": "17.9 µM (inactive)"
  },
  {
    "MOLECULE": "NC(=O)C1=NNc2ccccc2C(=O)N1c1ccccc1",
    "GI50": "> 100 µM (inactive)"
  },
  {
    "MOLECULE": "COc1cc(-c2oc3c(OC)c(O)c(OC)c(O)c3c(=O)c2OC)cc(O)c1OC",
    "GI50": "23.5 µM (inactive)"
  },
  {
    "MOLECULE": "Cc1cc2c(cn1)C(=O)OCC2",
    "GI50": "> 100 µM (inactive)"
  },
  {
    "MOLECULE": "O=C(O)c1ccc(C=C2Sc3ccccc3S2)cc1",
    "GI50": "63.8 µM (inactive)"
  },
  {
    "MOLECULE": "CCCCn1cnnc1NS(=O)(=O)c1cc(C)c(Cl)cc1SCC(=O)O",
    "GI50": "> 10 µM (inactive)"
  },
  {
    "MOLECULE": "COC(=O)/C=C/c1ccc(OP(=O)(O)O)c(OC)c1",
    "GI50": "> 100 µM (inactive)"
  },
  {
    "MOLECULE": "O=c1c2cc([N+](=O)[O-])ccc2n2n1CCCCC2",
    "GI50": "> 100 µM (inactive)"
  },
  {
    "MOLECULE": "Cc1c2n(c(=O)[nH]c1=O)C1OC(CO)C(N=[N+]=[N-])C1O2 (stereo unspecified)",
    "GI50": "> 100 µM (inactive)"
  },
  {
    "MOLECULE": "Cc1cc2c(O)c(c1)CN(Cc1ccccc1)Cc1cc(C)cc(c1O)CN(Cc1ccccc1)Cc1cc(C)cc(c1O)CN(Cc1ccccc1)C2",
    "GI50": "> 100 µM (inactive)"
  },
  {
    "MOLECULE": "C[C@H](CCc1nc(C#N)c(N)o1)[C@H]1CC[C@H]2[C@@H]3CCC4C[C@@H](O)CC[C@]4(C)[C@H]3C[C@@H](O)[C@]12C (stereo partly specified)",
    "GI50": "4.53 µM (inactive)"
  },
  {
    "MOLECULE": "O=Cc1cn(CCCCCn2cc(C=O)c3ccccc32)c2ccccc12",
    "GI50": "> 100 µM (inactive)"
  },
  {
    "MOLECULE": "CCCCC(=O)c1ccc2ccccc2c1O",
    "GI50": "> 100 µM (inactive)"
  },
  {
    "MOLECULE": "C=CCc1oc(C)nc1CCCC",
    "GI50": "> 100 µM (inactive)"
  },
  {
    "MOLECULE": "NC(=O)c1cccc([C@@H]2O[C@H](CO)[C@@H](O)[C@H]2O)c1",
    "GI50": "5.35 µM (inactive)"
  },
  {
    "MOLECULE": "COc1cc(/C=C2\\C(=O)N(c3ccccc3Cl)C(c3ccccc3)S2(=O)=O)cc(OC)c1OC (stereo unspecified)",
    "GI50": "30.3 µM (inactive)"
  },
  {
    "MOLECULE": "CN1CC=C(OP(=O)(NCc2ccccc2)N(CCCl)CCCl)CC1 (stereo unspecified)",
    "GI50": "> 100 µM (inactive)"
  },
  {
    "MOLECULE": "C[C@@H]1Nc2cc(NC(=O)OCCF)nc(N)c2N=C1c1ccccc1",
    "GI50": "21.5 µM (inactive)"
  },
  {
    "MOLECULE": "Cc1cccc(C(=O)c2cccc3ccccc23)c1C(=O)O",
    "GI50": "> 100 µM (inactive)"
  },
  {
    "MOLECULE": "COc1cccc(/C=N/n2c(-c3ccccc3)n[nH]c2=O)c1",
    "GI50": "> 100 µM (inactive)"
  },
  {
    "MOLECULE": "O=C(O)CCC(NC(=O)/C(=C/c1ccccc1)NC(=O)c1ccccc1)C(=O)O (stereo unspecified)",
    "GI50": "> 100 µM (inactive)"
  }
]
